EXPERIMENT: recombinant UMI read abundance after kanamycin selection (control-corrected) (log10(CPM+1)); higher = more efficient recombination; extreme values may be limits of the assay; sequences stand for … in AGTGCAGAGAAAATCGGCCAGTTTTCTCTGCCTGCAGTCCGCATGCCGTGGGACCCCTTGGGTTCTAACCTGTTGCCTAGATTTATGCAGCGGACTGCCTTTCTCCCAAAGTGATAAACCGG…AGGTTGGTTTCACT; site = the 11-nt donor
Threshold rule: recombinant UMI read abundance (log10) greater than or equal to 0.004 is MET; below that, NOT MET.

Field: example entries. Status: answers known.
Check the entry TGTTCCGCATGGACCGGTTTTCCCGGTAATCCGTATTTGTA (site TGTTCCCCTTA) : does recombinant UMI read abundance (log10) equal or exceed 0.004?
MET

Follow-up entry: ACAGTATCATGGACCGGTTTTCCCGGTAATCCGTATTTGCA (site ACAGTACCTGG)
NOT MET

What do you get for TGCTACGCATGGACCGGTTTTCCCGGTAATCCGTATTTGGT (site TGCTAAGCTAC) ?
MET

// next record TTAGCTACATGGACCGGTTTTCCCGGTAATCCGTATTTGTG (site TTAGCTCCTCA)
MET

Also need CGGCAACCATGGACCGGTTTTCCCGGTAATCCGTATTTGAT (site CGGGAACCTAT) , thanks.
NOT MET

Entry to check: TCCACTGCATGGACCGGTTTTCCCGGTAATCCGTATTTGCG (site TCCACCGCTCG)
NOT MET

More entries:
Could you tell me if the measured recombinant UMI read abundance (log10) of GCCAATTCATGGACCGGTTTTCCCGGTAATCCGTATTTGCC (site GCCAATTCTGG) reaches 0.004 or more?
MET

Now consider CAACGCTCATGGACCGGTTTTCCCGGTAATCCGTATTTGAA (site CAAAGCTCTTT) and answer again.
NOT MET

Another sequence: TAAGCAGCATGGACCGGTTTTCCCGGTAATCCGTATTTGCT (site GAAGCAGCTAG)
MET

Next sequence up: CGAGGGACATGGACCGGTTTTCCCGGTAATCCGTATTTGTC (site CGAGGGACTGA)
MET

Thanks! And GGGTCGGCATGGACCGGTTTTCCCGGTAATCCGTATTTGGC (site GGGTCGGCTGC) ?
MET

Same question, GACAAAGCATGGACCGGTTTTCCCGGTAATCCGTATTTGGT (site GACAAAACTAC) this time
NOT MET

Now this one: CCGGAACCATGGACCGGTTTTCCCGGTAATCCGTATTTGAT (site CCGGAACCTAT)
NOT MET

One more sequence: TAGGCATCATGGACCGGTTTTCCCGGTAATCCGTATTTGCG (site TAGGTATCTCG)
MET

----------
EXPERIMENT: recombinant barcode read abundance after kanamycin selection (control-corrected) (log10(CPM+1)); higher = more efficient recombination; sequences stand for … in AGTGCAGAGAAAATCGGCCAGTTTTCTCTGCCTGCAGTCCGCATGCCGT…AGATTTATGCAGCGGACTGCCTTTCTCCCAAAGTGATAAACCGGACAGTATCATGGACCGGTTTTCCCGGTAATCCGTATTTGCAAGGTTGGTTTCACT; site = the 11-nt target
ASSAY READOUT: recombinant barcode read abundance (log10)
When you answer, write just the number.

// below: answered sequences
Bench note: what recombinant barcode read abundance (log10) did GGGGCGCCTTGGGTTCTAACCTGTTGCCT (site GGGGCGACTAG) show?
0.44

And then GTACTACCTTGGGTTCTAACCTGTTGCCG (site ACGGAGACTAT) , what is it?
0.198

Input ACAAATACTTGGGTTCTAACCTGTTGCGG (site ACAAATACTCC)
0.905

Another sequence to look at: AACAGGCCTTGGGTTCTAACCTGTTGCCT (site AACAGGCCTAG)
0.0525

Queued: GCCTGGTCTTGGGTTCTAACCTGTTGCCT (site TCCTCGTCTAG)
0.122

Moving on to CGCTTTACTTGGGTTCTAACCTGTTGCCG (site TAGACATCTAC)
0.0706

Record: CTTGGACCTTGGGTTCTAACCTGTTGCCT (site CTTGGAACTAG)
0.222

Similarly, ATTGGTTCTTGGGTTCTAACCTGTTGCCT (site ATTGGTTCTAG) ?
1.22

Continuing:
Entry GACTTACCTTGGGTTCTAACCTGTTGCAT (site GACTTACCTAT) : reported recombinant barcode read abundance (log10) = ?
1.18

And what about the sequence ACCATGTCTTGGGTTCTAACCTGTTGCGG (site TAGTACACTGT) ?
0.171

----------
EXPERIMENT: recombinant UMI read abundance after kanamycin selection (control-corrected) (log10(CPM+1)); higher = more efficient recombination; extreme values may be limits of the assay; sequences stand for … in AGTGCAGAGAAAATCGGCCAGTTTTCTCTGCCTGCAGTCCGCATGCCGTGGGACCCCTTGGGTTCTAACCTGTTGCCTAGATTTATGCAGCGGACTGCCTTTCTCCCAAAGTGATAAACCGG…AGGTTGGTTTCACT; site = the 11-nt donor
ASSAY READOUT: recombinant UMI read abundance (log10)
Reply with the value as a number alone.

Sample records with recombinant UMI read abundance (log10):
Any idea what recombinant UMI read abundance (log10) was measured for AATGAAACATGGACCGGTTTTCCCGGTAATCCGTATTTGCT (site AATGAAACTAG) ?
1.94

Now consider CTGCCTACATGGACCGGTTTTCCCGGTAATCCGTATTTGAG (site CTCCCTACTCT) .
0.00401

Now this one: GATGATCCATGGACCGGTTTTCCCGGTAATCCGTATTTGCT (site GATTATCCTAG)
0

For CGGACATCATGGACCGGTTTTCCCGGTAATCCGTATTTGTT (site CGGACATCTAG) then?
0

Lookup GTTGGTACATGGACCGGTTTTCCCGGTAATCCGTATTTGAC (site GTCGGTACTGT)
2.31

***
If you can, please state the reported recombinant UMI read abundance (log10) value of GCTAGAACATGGACCGGTTTTCCCGGTAATCCGTATTTGAG (site TCTAGAACTCT) .
0.815

Also GCGCGAGCATGGACCGGTTTTCCCGGTAATCCGTATTTGGG (site GCGCGAGCTCC) ?
0.163

----------
Below, each entry is listed with its recorded recombinant UMI read abundance (log10).
EXPERIMENT: recombinant UMI read abundance after kanamycin selection (control-corrected) (log10(CPM+1)); higher = more efficient recombination; extreme values may be limits of the assay; sequences stand for … in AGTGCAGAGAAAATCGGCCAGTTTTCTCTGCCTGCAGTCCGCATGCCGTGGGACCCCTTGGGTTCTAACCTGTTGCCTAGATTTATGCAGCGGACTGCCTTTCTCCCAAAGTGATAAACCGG…AGGTTGGTTTCACT; site = the 11-nt donor

In the examples that follow, each entry is paired with its recorded recombinant UMI read abundance (log10).
Can you look up the measured recombinant UMI read abundance (log10) of CTCTACACATGGACCGGTTTTCCCGGTAATCCGTATTTGAT (site CTCTACACTAG) for me?
0.00358

Next up: CGTTACCCATGGACCGGTTTTCCCGGTAATCCGTATTTGCG (site CGTTACCCTCG)
0.477

What do you get for GTCAGCGCATGGACCGGTTTTCCCGGTAATCCGTATTTGGC (site GTCAGCGCTGC) ?
2.6

More entries:
Record request: recombinant UMI read abundance (log10) value, item GCAGACCCATGGACCGGTTTTCCCGGTAATCCGTATTTGAT (site GCAGACCCTAT)
0.819

Same for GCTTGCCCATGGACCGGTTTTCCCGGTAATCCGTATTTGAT (site GCTTGCTCTAT)
0.571

What about ATAGTCGCATGGACCGGTTTTCCCGGTAATCCGTATTTGCG (site CTAGTCGCTCG) ?
0.303

Try this sequence too: CGGGTCACATGGACCGGTTTTCCCGGTAATCCGTATTTGTC (site CGGGTCACTGA)
3.01

Same for ACACGTACATGGACCGGTTTTCCCGGTAATCCGTATTTGTC (site ACACGAACTGA)
0

Also, GTAGGTACATGGACCGGTTTTCCCGGTAATCCGTATTTGGC (site GTAGGTACTGT) please.
1.53

# iterate: GTATCTCCATGGACCGGTTTTCCCGGTAATCCGTATTTGAA (site GTATCTCCTTT)
1.19

Also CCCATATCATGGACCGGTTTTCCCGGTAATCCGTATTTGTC (site CCCATATCTCA) , if possible.
0

Same lookup for CAGTTGACATGGACCGGTTTTCCCGGTAATCCGTATTTGGG (site CAGTAGACTCC) , please.
0

Same question, GTGCCTGCATGGACCGGTTTTCCCGGTAATCCGTATTTGGT (site GTGCATGCTAC) this time
0.0028

TTAAGGCCATGGACCGGTTTTCCCGGTAATCCGTATTTGAC (site CTAAGGCCTGT) , same question.
0

Try this sequence too: TCCAGTTCATGGACCGGTTTTCCCGGTAATCCGTATTTGCC (site TCCAATTCTGG)
0

Cool, now CACTCCTCATGGACCGGTTTTCCCGGTAATCCGTATTTGAC (site CACTCCTCTGA)
2.16

Same lookup for CTGGAACCATGGACCGGTTTTCCCGGTAATCCGTATTTGAT (site CAGGAACCTAT) , please.
0

Here is the next sequence: TACTTGACATGGACCGGTTTTCCCGGTAATCCGTATTTGTT (site TACTTGACTAA)
0.00709
